Target sequence: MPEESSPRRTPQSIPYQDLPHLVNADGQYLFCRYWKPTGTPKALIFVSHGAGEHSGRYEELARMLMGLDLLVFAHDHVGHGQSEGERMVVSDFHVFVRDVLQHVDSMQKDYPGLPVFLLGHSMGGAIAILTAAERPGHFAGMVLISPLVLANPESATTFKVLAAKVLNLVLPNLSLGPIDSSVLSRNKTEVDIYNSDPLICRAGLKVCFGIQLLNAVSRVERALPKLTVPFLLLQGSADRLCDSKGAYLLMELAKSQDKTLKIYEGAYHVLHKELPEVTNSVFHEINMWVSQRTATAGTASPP
quantity-kind: IC50 (nM)

INPUT: Requested read-out: IC50. Entry: `COc1cc(Cl)ccc1CN(C)C1CN(C(=O)N2CC3(CC(c4nnc(C5CC5)[nH]4)C3)C2)C1`
OUTPUT: 34

INPUT: Requested read-out: IC50. Entry: `CS(=O)(=O)c1ccc(Cl)cc1OC1CCC2(CC1)CN(C(=O)N1CC3(CC(c4nnc(C5CC5)[nH]4)C3)C1)C2`
OUTPUT: 3.43

INPUT: Requested read-out: IC50. Entry: `O=C(N1CC2(CC(c3nc(C4CC4)n[nH]3)C2)C1)N1CC2(CCN(Cc3ccc(S(=O)(=O)C(F)(F)F)cc3)C2)C1`
OUTPUT: 2.63

INPUT: Requested read-out: IC50. Entry: `O=C(N1CC2(CC(Cc3ccc(C(F)(F)F)cc3F)C2)C1)N1CC2(CC(c3nnc(C4CC4)[nH]3)C2)C1`
OUTPUT: 0.01

INPUT: Requested read-out: IC50. Entry: `O=C(N1CC(c2ccc(N3CC(C(F)(F)F)C3)nc2)C1)N1CC2(CC(c3nnc(C4CC4)[nH]3)C2)C1`
OUTPUT: 0.64

[A] CS(=O)(=O)c1ccc(COC2CCN(C(=O)N3CC4(CC(c5nc(C6(O)CC6)n[nH]5)C4)C3)CC2)c(Cl)c1
[B] O=C(N1CC2(CC(Oc3ncc(C(F)(F)F)cc3F)C2)C1)N1CC2(CC(c3nc(C4CC4)n[nH]3)C2)C1
INPUT: Which item exceeds the other in IC50, A or B ? Your answer should be the label attached to the chosen record.
OUTPUT: A
(A: 964 nM, B: 0.23 nM)

----------
Target sequence: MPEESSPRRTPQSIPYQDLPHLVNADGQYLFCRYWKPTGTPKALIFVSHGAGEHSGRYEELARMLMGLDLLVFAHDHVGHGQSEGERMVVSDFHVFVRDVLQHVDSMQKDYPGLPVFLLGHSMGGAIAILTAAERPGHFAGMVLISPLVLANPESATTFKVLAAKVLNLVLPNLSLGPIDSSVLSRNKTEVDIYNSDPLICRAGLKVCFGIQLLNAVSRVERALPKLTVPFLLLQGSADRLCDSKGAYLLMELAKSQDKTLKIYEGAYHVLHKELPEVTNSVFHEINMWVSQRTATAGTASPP
quantity-kind: IC50 (nM)

INPUT: Requested read-out: IC50. Entry: `O=C(N1CC(C23CC(c4ccc(F)cc4)(C2)C3)C1)N1CC2(CC(c3nc(C4CC4)n[nH]3)C2)C1`
OUTPUT: 1.31

INPUT: Requested read-out: IC50. Entry: `O=C(N1CC2(CC(Cc3ccc(C(F)(F)F)nn3)C2)C1)N1CC2(CC(c3nc(C4CC(F)(F)C4)n[nH]3)C2)C1`
OUTPUT: 413

INPUT: Requested read-out: IC50. Entry: `O=C(N1CC2(CC(c3nc(C4CC4)n[nH]3)C2)C1)N1CC2(CC[C@H](Cc3ccc(S(=O)(=O)C(F)(F)F)cc3)C2)C1`
OUTPUT: 0.09

INPUT: Requested read-out: IC50. Entry: `CS(=O)(=O)C1(c2ccc(C3CN(C(=O)N4CC5(CC(c6nc(C7CC7)n[nH]6)C5)C4)C3)cc2)CC1`
OUTPUT: 5.9

INPUT: Requested read-out: IC50. Entry: `O=C(N1CC(C23CC(C(F)(F)c4ccc(C(F)(F)F)cc4)(C2)C3)C1)N1CC2(CC(c3nc(C4CC4)n[nH]3)C2)C1`
OUTPUT: 2.4

[P] O=C(N1CC2(CC(Oc3cncc(C(F)(F)F)c3)C2)C1)N1CC2(CC(c3nc(C4CC4)n[nH]3)C2)C1
[Q] O=C(N1CC2(CC(Cn3cc(CC(F)(F)F)cn3)C2)C1)N1CC2(CC(c3nc(C4CC4)n[nH]3)C2)C1
INPUT: Which item exceeds the other in IC50, P or Q ? Your answer should be the label attached to the chosen record.
OUTPUT: P
(P: 2.23 nM, Q: 0.61 nM)
